# test.system: GST-Xa-hAAK1 (Homo sapiens)
# Construct: GST (N); Factor Xa cleavage site (Xa) (internal)
# Sequence (Q2M2I8 whole entry): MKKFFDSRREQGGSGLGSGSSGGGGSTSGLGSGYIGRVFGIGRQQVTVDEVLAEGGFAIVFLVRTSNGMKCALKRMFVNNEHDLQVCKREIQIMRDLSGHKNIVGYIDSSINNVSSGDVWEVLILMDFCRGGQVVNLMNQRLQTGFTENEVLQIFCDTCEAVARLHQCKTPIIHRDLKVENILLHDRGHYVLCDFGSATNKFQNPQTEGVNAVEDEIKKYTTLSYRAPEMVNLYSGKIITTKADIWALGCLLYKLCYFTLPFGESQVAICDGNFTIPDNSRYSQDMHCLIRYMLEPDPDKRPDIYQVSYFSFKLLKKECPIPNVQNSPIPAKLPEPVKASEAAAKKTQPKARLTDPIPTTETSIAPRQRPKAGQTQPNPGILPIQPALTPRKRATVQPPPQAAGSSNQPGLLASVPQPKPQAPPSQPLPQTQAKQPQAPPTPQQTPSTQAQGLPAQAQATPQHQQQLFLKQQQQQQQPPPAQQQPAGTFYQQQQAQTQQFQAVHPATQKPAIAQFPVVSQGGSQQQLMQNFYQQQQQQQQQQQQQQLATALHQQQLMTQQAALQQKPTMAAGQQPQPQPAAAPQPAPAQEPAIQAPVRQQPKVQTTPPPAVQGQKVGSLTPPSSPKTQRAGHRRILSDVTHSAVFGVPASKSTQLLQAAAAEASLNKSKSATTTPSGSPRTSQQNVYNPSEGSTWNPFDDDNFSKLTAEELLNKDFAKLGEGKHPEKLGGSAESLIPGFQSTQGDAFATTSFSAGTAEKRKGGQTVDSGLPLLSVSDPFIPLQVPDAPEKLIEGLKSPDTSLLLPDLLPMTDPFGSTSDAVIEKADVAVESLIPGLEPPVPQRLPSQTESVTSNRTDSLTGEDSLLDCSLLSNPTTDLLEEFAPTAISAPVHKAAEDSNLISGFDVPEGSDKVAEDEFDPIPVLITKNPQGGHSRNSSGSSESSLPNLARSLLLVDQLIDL
# protocol: AAK1 Kinase Assay
# condition.parameters: bacterially expressed GST-Xa-hAAK1 3.5 nM; ATP 22 μM; fluoresceinated peptide 1.5 μM; 3 hours at room temperature; Caliper LabChip 3000
reported.endpoint: pIC50
Lab note — pIC50 values are minus log10 of concentrations in M.

Below are worked cases with known answers.
Name the recorded pIC50 for `CC(C)C[C@](C)(N)COc1ccc(-c2ccnc3c2C(=O)N(C)C3)cc1C(F)(F)F` .
8.14

Name the recorded pIC50 for CC(C)C[C@](C)(N)COc1ccc(-c2ccnc(NC3CCC(F)C3)c2)cc1Cl (stereo partly shown) .
7.82

Name the recorded pIC50 for `Cc1nc2c(-c3ccc(OC[C@@](C)(N)CC(C)C)c(C(F)(F)F)c3)ncnc2s1` .
8.08

We now examine a further compound.
Name the recorded pIC50 for `Cc1cc(-c2ccnc3c2C(=O)NC3)ccc1OC[C@@](C)(N)CC(C)C` .
7.89
